These data points were gathered from patent US20070197525A1.

Could you please report measured D2/NET for the items listed next?
systemName: human dopamine D2L receptor (Homo sapiens)
Construct: expressed in transfected cells; host or cells: CHO cells (frozen membranes)
Sequence (P14416 whole entry): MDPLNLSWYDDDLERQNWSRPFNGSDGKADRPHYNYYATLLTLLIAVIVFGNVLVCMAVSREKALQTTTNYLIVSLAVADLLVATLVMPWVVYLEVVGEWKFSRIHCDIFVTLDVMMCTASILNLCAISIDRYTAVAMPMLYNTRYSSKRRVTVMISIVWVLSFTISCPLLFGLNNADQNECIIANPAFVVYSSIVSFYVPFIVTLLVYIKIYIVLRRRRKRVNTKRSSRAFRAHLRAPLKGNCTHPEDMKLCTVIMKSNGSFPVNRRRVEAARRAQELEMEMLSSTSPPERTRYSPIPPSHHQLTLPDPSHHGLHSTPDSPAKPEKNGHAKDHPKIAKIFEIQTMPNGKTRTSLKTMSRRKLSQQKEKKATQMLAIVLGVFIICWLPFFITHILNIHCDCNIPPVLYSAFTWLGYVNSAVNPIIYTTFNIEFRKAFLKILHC
protocolDescription: In vitro assay for D2 receptor binding
conditionSummary: ratio of D2 pIC50 to NET-inhibition pIC50

Please review the entries below; each comes with its answer.
CN(C)C[C@H]1C[C@@H]2c3ccccc3[C@](C)(O)c3ccc(F)cc3[C@H]2O1 ... <0.87
CNCC1CC2c3cc(F)ccc3C(C)(O)c3ccccc3C2O1 (single isomer, unassigned) [Compound 115] ... <0.85
CNCC1CC2c3ccccc3C(C)c3ccc(F)cc3C2O1 (single isomer, unassigned) [Compound 100] ... <0.62
CNCC1CC2c3ccccc3C(C)(O)c3ccc(F)cc3C2O1 (single isomer, unassigned) [Compound 125] ... <0.88

Shifting focus to the compound that follows.
Sample CNCC1CC2c3cc(F)ccc3C(C)(O)c3ccccc3C2O1 (single isomer, unassigned) [Compound 114] ; D2/NET observed: <0.83

---

systemName: norepinephrine transporter (NET) (Rattus norvegicus, UniProt Q63380)
Construct: Cortex from rat brain was collected and homogenised; from tissue; host or cells: rat brain cortex membranes
Sequence (Q63380 1-617): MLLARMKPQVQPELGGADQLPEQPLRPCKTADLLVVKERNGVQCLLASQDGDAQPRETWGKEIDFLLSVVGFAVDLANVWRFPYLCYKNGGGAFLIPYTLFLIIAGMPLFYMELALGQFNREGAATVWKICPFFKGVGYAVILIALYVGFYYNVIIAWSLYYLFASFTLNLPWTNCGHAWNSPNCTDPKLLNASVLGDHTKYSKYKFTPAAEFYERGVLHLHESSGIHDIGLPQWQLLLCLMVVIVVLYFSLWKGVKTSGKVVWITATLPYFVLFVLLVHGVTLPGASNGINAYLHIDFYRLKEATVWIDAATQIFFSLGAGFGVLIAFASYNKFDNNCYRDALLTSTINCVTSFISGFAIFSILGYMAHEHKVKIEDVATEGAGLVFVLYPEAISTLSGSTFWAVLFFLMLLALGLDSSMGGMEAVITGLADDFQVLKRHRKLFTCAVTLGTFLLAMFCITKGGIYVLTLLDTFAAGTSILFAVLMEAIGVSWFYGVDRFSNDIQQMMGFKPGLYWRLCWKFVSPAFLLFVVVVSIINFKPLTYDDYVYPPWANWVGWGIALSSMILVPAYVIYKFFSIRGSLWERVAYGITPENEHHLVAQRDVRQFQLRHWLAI
protocolDescription: In vitro assay for NET inhibition (radioligand binding, rat brain cortex)
conditionSummary: rat brain cortex membranes, [3H]Nixosetine radioligand; read-out: NET-inhibition (pIC50) (converted)
observationType: IC50 (µM)
Answers are plain numbers, in µM.

CNCC1CC2c3cc(F)ccc3C(C)(O)c3ccccc3C2O1 (single isomer, unassigned) [Compound 114] ... 0.631
C=C1c2ccccc2[C@@H]2C[C@@H](CNC)O[C@H]2c2cc(F)ccc21 ... 0.0158
CCNC[C@H]1C[C@@H]2c3ccccc3[C@@H](OC)c3ccc(F)cc3[C@H]2O1 ... 0.01
CN(C)C[C@H]1C[C@@H]2c3ccccc3[C@](C)(O)c3ccc(F)cc3[C@H]2O1 ... 0.126
COC1c2ccccc2[C@H]2C[C@H](CN(C)C)O[C@@H]2c2cc(F)ccc21 (some centres unmarked) ... 0.126

Here are 3 compounds. What values of IC50 were reported for them?
1. CNC[C@H]1C[C@@H]2c3ccccc3[C@@H](OC(C)C)c3ccc(F)cc3[C@H]2O1
2. CCNCC1CC2c3ccccc3C(C)(O)c3ccc(F)cc3C2O1 (single isomer, unassigned) [Compound 118]
3. CCNC[C@H]1C[C@@H]2c3ccccc3[C@@H](O)c3ccc(F)cc3[C@H]2O1 (relative stereo)

Outgoing:
[3.98, 0.631, 0.00398]

---

systemName: human cloned 5-HT2C receptor (Homo sapiens)
Construct: expressed in transfected cells; host or cells: CHO cells
Sequence (P28335 33-458): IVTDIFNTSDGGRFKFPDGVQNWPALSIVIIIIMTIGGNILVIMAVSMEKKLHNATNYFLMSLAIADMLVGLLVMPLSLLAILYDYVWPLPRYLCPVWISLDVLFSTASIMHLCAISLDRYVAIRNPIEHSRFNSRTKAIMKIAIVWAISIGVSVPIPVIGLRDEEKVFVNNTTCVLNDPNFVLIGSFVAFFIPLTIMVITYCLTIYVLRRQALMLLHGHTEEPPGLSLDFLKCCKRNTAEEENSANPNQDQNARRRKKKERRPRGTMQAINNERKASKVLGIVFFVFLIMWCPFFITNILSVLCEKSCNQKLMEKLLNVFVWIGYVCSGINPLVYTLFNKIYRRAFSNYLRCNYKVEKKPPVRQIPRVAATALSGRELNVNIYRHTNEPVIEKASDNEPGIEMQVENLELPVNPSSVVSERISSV
protocolDescription: In vitro binding affinity for 5-HT2C receptor (radioligand binding)
conditionSummary: human cloned 5-HT2C receptor expressed in CHO cells, [3H]mesulergine radioligand; read-out: 5-HT2C (pIC50) (converted)
Could you please report measured IC50 for the items listed next?
One number for each entry, in nM.

Please review the entries below; each comes with its answer.
C=C1c2ccccc2[C@@H]2C[C@@H](CNC)O[C@H]2c2cc(F)ccc21 [Compound 95] ... 50.1
COc1ccc2c(c1)[C@H]1O[C@@H](CN(C)C)C[C@@H]1c1ccccc1C2=O [Compound 16] ... 50.1

Sample CN(C)C[C@H]1C[C@@H]2c3ccccc3[C@](C)(O)c3ccc(F)cc3[C@H]2O1 [Compound 41] ; IC50 observed: 50.1
